Reference for the values: patent US20250270341A1

Target: T1, Full length human CD98hc on CHO cells (human)
T1 construct: CHO cells stably overexpressing it; also called CHO-human CD98hc; CHO-huCD98hc
T1 chain: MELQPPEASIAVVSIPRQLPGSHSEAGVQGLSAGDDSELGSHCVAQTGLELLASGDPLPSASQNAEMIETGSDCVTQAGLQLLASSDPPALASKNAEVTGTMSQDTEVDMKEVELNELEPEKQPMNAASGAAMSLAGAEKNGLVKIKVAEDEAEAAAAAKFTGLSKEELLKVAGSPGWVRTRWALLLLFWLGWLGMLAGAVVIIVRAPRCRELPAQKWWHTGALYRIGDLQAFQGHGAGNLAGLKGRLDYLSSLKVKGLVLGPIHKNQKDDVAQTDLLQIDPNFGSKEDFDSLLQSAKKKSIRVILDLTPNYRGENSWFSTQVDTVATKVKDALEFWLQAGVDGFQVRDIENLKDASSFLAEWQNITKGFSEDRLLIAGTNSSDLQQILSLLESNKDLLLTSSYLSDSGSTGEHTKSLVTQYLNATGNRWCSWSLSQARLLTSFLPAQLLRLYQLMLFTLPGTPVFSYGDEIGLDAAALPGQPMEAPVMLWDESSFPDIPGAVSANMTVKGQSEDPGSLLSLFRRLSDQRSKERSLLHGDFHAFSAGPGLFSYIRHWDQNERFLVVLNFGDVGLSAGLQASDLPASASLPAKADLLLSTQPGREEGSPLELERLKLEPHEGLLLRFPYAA
Experiment: FACS, hybridoma supernatant
Documented MFI ratio over secondary antibody across a set of binders
outcome.measure: MFI ratio over secondary antibody

binder: CD98HC.04.022 (antibody, V domains shown, hybridoma IgG) VH: EVQLQQSGAELVKPGASVKLSCTASGFNIKDTFMHWMKQRPEQGLEWIGRIDPANANTRYDPKFQGKATITTDTSSNTAYLQLSSLTSEDTAVYYCARDVYYDVWGAGTTVTVSS VL: DILMTQSPSSMSVSLGDTVTITCHASQGISSNIGWLQQKPGRSFKGLIYHGSNLEDGVPSRFTGSGSGTDYSLTISGLESEDFADYYCVQYAQFPRTFGGGTKLEIQ
outcome.measure: MFI ratio over secondary antibody
result: 16.6

binder: CD98HC.04.045 (antibody, V domains shown, hybridoma IgG) VH: QIQLVQSGPELKKPGETVKISCKASGYSITNFGMNWVKQAPGKGLKWMGWVNTYTGEPTYADDFKGRFAFSLETSASTASLQINNLKNEDTATYFCTRSVITYTMDYWGQGTSVTVSS VL: DIQLTQSPSSLSASLGERVSLTCRASQEISGYLSWLQQKPDGTIKRLIYAASTLDSGVPKRFSGSRSGSDYSLTISSLESEDFADYYCLQYASYPRTFGGGTKVEIK
outcome.measure: MFI ratio over secondary antibody
result: 2.4

binder: CD98HC.04.010 (antibody, V domains shown, hybridoma IgG) VH: QVQLQQSGAELMKPGASVKISCKATGYTFSTYWIEWVKQRPGHGLEWIGEILPGSGTTTYNEKFKGKATFTADTSSNTAYMQLSSLTSEDSAVYYCARRTVYYRYEGIDYWGQGTTLTVSS VL: QIVLTQSPAIMSASPGEKVTITCSASSSVSYMFWFQQRPGTSPKLWIYTTSNLASGVPARFSGSGSGTSYSLTISRMEAEDAATYYCQQKNNYPFTFGSGTKLEIK
outcome.measure: MFI ratio over secondary antibody
result: 26.5

binder: CD98HC.04.058 (antibody, V domains shown, hybridoma IgG) VH: QVQLQQSGAELVRPGVSVKISCKASGYTFTDHTMHWVKQSHARSLEWIGVISTYFGDASYNPKFKGKATMTVDKSSNTAYMELARLTSEDSAIYYCARVGGRLRLGYYFDYWGQGTTLTVSS VL: NIMMTQSPSSLAVSAGEKVTMNCKSSQTVLYSSNQKNYLAWYQQKPGQSPKLLIYWASTRESGVPDRFTGSGSGTDFTLTISSVQVEDLAVYYCHQYLSSYTFGGGTKLEIK
outcome.measure: MFI ratio over secondary antibody
result: 33

binder: CD98HC.04.012 (antibody, V domains shown, hybridoma IgG) VH: QVQLQQSGADLVRPGDSVKISCKGSGYTFTDNTLHWVKQSHAKSLEWIGVISPYYGDASYNQKFKGKATMTVDKSSSTAYMELARLTSEDSAIYYCARVGGRLRLGYYFDHWGQGTTLTVSS VL: NIMMTQSPSSLAVSAGEKVTMNCKSSQSVLSSSNQKNYLAWYQQKPGQSPKLLIYWASTRESGVPARFTGSGSGTDFSLTITSVQAEDLAVYYCLQYLSSYTFGGGTKLEIK
outcome.measure: MFI ratio over secondary antibody
result: 28.3
